Let's look at some compounds and their measured EC50.
Target: hTRPML1 (Homo sapiens, UniProt Q9GZU1)
Construct: expressed in transfected cells
Sequence (Q9GZU1 whole entry): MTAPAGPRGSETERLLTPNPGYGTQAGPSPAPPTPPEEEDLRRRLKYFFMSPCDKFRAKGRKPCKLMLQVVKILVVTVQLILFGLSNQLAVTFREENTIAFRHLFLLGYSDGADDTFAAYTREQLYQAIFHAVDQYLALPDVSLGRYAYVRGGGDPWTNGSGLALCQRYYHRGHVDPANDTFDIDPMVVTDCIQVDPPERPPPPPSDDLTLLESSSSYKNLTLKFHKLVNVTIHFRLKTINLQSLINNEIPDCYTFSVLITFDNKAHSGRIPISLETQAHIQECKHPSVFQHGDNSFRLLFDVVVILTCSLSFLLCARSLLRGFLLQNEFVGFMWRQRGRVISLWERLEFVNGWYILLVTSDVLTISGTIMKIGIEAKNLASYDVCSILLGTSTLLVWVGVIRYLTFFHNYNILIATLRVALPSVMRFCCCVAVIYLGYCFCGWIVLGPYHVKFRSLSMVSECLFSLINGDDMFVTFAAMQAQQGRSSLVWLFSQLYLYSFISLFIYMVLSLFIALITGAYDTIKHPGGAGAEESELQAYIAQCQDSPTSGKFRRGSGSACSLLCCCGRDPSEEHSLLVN
Assay: Cellular TRPML1 assay (FLIPR, GCaMP6f calcium read-out)
Assay type: cell-based
Conditions: HEK T-REx/GCaMP6f/TRPML1 cells, FLIPR TETRA, kinetic response over 300 seconds; read-out: hTRPML1 FLIPR pEC50 (converted)
Procedure: Buffers and reagents • PBS (D-PBS without calcium and magnesium; EuroClone) • Trypsin (Trypsin 0.05%, EDTA 0.02% in PBS; EuroClone) • DMSO (Sigma) • Ca^2+ free Tyrode's buffer: in-house solution (130 mM NaCl, 5 mM KCl, 1 mM MgCl2, 5 mM NaHCO3, 20 mM HEPES in water at pH 7.4; sterile filtered). • Opti-MEM (Gibco) • Agonist: ML-SA1 (Sigma); stock: 60 mM in DMSO, stored at −20° C. • Blocker: ML-SI3 (in house synthesis); stock: 20 mM in DMSO, stored at −20° C. […]

compound: CC(C)(C)OC(=O)N1CCN(c2ccccc2NS(=O)(=O)c2ccc(C3CC3)cc2)CC1 [Example 23]
value.type: EC50
result: 1 to 3.16 µM

compound: CCS(=O)(=O)c1ccc(S(=O)(=O)Nc2ccccc2N2CCC(Oc3ccccc3)CC2)cc1 [Example 6]
value.type: EC50
result: > 3.16 µM

compound: CN(C)S(=O)(=O)c1ccc(C(=O)N(c2cccc(F)c2N2CCC(Oc3ccccn3)CC2)C2CCC2)cc1 [Example 12]
value.type: EC50
result: > 3.16 µM

compound: Cc1ccc(N2CCC(Oc3ccccn3)CC2)c(NS(=O)(=O)c2ccc(S(=O)(=O)N(C)C)cc2)c1 [Example 14]
value.type: EC50
result: < 1 µM

compound: CC(C)(C)OC(=O)N1CCN(c2ccccc2NS(=O)(=O)c2ccc(C(F)(F)F)cc2)CC1 [Example 17]
value.type: EC50
result: 1 to 3.16 µM

compound: CN(C)S(=O)(=O)c1ccc(S(=O)(=O)Nc2cccc(F)c2N2CCC(Oc3ccccn3)CC2)cc1 [Example 8]
value.type: EC50
result: < 1 µM

Q. Item: CC(C)N(C(=O)c1ccc(S(=O)(=O)N(C)C)cc1)c1cccc(F)c1N1CCC(Oc2ccccn2)CC1 [Example 11] Test system: hTRPML1 (Homo sapiens, UniProt Q9GZU1) Read-out: EC50 Value: ?
A. > 3.16 µM

Q. Item: Cc1ccc(S(=O)(=O)Nc2ccccc2N2CCN(C(=O)Oc3ccccc3)CC2)cc1C [Example 39]
A. > 3.16 µM

Q. Item: CN(C)S(=O)(=O)c1ccc(S(=O)(=O)Nc2ccccc2N2CCC(C)(c3ccccc3)CC2)cc1 [Example 38]
A. 1 to 3.16 µM

Q. Item: CN(C)S(=O)(=O)c1ccc(S(=O)(=O)Nc2ccccc2N2CCC[C@@H](COc3ccccc3)C2)cc1 (single isomer, unassigned) [Example 36]
A. 1 to 3.16 µM

Q. Item: CN(C)S(=O)(=O)c1ccc(S(=O)(=O)Nc2ccccc2N2CCC[C@@H](Oc3ccccc3)C2)cc1 (single isomer, unassigned) [Example 30]
A. 1 to 3.16 µM

Q. Item: Cc1ccc(S(=O)(=O)Nc2ccccc2N2CCN(C(=O)OC(C)(C)C)CC2)c(F)c1 [Example 18]
A. > 3.16 µM

Q. Item: COCCN(C(=O)c1ccc(S(=O)(=O)N(C)C)cc1)c1ccccc1N1CCC(Oc2ccccc2)CC1 [Example 3]
A. > 3.16 µM
